Reference for the values: patent US20200087373A1

Overview of recorded cAMP agonism, EC50 (log) for various binders
Molecular target: T1, human GIP receptor (human, UniProt P48546 22-466)
T1 sequence (looked up): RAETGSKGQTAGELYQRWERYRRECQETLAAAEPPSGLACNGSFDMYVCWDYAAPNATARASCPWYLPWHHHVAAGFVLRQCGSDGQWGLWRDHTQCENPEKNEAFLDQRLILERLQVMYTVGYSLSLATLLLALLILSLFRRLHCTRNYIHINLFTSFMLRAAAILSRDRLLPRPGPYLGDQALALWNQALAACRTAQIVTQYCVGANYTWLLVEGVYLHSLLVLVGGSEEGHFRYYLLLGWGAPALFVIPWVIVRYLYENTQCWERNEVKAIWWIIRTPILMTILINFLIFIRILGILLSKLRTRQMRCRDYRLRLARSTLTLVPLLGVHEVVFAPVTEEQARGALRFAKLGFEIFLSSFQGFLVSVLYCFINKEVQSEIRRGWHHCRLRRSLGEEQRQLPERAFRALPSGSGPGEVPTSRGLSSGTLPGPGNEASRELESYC
Test: cell-based or functional assay
Ends that are not written are not given here. * marks the point of attachment. Stearoyl = CCCCCCCCCCCCCCCCCC(=O)*; Lauroyl = CCCCCCCCCCCC(=O)*; Dodecyl = CCCCCCCCCCCC*
measure_name: cAMP agonism, EC50 (log) (log M)

> print(dat)
                                     binder              measure.name  test.result
1  EGTFISDYSIAMDK(Stearoyl)IRQQDFVNWLLAQR-NH2 (not fully specified) [AT162 [hGIP(3-30)NH2[H18R; K30R]-C18/16]]  cAMP agonism, EC50 (log)         -5.9
2  Lauroyl-EGTFISDYSIAMDKIHQQDFVNWLLAQK-NH2 [AT148 [hGIP(3-30)NH2-C12/3]]  cAMP agonism, EC50 (log)         -7.9
3  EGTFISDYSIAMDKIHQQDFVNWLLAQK(Lauroyl)-NH2 [AT103 [hGIP(3-30)NH2-C12/30]]  cAMP agonism, EC50 (log)         -5.3
4  Lauroyl-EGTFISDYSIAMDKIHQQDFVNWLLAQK-NH2 [AT101 [hGIP(3-30)NH2-C12/3]]  cAMP agonism, EC50 (log)         -9.1
5  Stearoyl-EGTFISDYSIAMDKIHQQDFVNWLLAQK-NH2 [AT113 [hGIP(3-30)NH2-C18/3]]  cAMP agonism, EC50 (log)           -8
6  EGTFISDYSIAMEKIAQQDFVNWLLAQK(Dodecyl)-NH2 [AT130 [hGIP(3-30)NH2[D15E; H18A]-C12/30]]  cAMP agonism, EC50 (log)         -5.1
